Molecular target: Ubiquitin carboxyl-terminal hydrolase BAP1 (Homo sapiens)
Experiment: BAP1 inhibitor potency with two substrates, dose response, biochemical, Ub-AMC versus Ub-rhodamine substrates (AID 1068)
Conditions: recombinant BAP1, Ub-rhodamine hydrolysis fluorescence
Active and inactive are the calls of the source.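 The calls were made as follows: active = IC50 of 15 µM or lower, and residual activity at the IC50 concentration no higher than 60%; inactive = the rest.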
Select the matching outcome among class 1 = active, class 0 = inactive

Q) Lab log entry: `Cc1sc(NC(=O)CSc2nnc(-c3ccc(F)cc3)o2)c(C#N)c1C` — outcome as called in the assay?
A) class 0

Q) Please answer likewise for `Cc1sc(NC(=O)CSc2nnc(-c3ccc(Cl)cc3)o2)c(C#N)c1C`
A) class 1

Q) Please answer likewise for `Cc1oc(NC(=O)CSc2n[nH]c(-c3ccc(F)cc3)n2)c(C#N)c1C`
A) class 0

* * *

Biological target: Ubiquitin carboxyl-terminal hydrolase BAP1 (Homo sapiens) (UniProt Q92560)
Sequence (Q92560 whole entry, looked up): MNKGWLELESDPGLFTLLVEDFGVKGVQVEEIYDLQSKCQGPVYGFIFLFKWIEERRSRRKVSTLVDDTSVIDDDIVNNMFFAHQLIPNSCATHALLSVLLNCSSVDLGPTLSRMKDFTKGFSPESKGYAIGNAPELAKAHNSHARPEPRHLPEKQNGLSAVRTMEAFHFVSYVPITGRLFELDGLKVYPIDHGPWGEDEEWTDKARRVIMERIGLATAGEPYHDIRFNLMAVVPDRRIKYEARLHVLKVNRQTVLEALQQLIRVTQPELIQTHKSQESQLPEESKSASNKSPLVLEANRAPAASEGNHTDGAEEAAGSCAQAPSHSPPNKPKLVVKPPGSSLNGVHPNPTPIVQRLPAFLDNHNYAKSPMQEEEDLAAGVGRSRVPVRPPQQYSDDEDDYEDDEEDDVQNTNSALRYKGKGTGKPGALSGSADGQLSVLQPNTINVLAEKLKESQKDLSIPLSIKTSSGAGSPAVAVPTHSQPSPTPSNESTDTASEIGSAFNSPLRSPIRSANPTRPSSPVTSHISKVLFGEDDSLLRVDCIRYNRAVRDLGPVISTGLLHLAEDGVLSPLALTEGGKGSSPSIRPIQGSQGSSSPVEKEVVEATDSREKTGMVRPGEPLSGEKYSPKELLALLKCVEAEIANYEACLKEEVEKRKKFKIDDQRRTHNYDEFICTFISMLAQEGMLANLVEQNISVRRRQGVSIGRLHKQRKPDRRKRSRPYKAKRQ
Experiment: BAP1 inhibitor potency with two substrates, dose response, biochemical, Ub-AMC versus Ub-rhodamine substrates (AID 1068)
Details: recombinant BAP1, Ub-rhodamine hydrolysis fluorescence; measured here: Ub-AMC substrate assay
pIC50: −log10 of the molar value.
readout.kind: pIC50

Example results:
O=C(O)c1ccccc1-c1nc(-c2cccc(Cl)c2)no1; 4.23
Cc1sc(NC(=O)CSc2nnc(-c3ccccc3)o2)c(C#N)c1C; 4.32
Cc1sc(NC(=O)CSc2nnc(-c3ccc(F)cc3)o2)c(C#N)c1C; 4.00

A: O=C(Nc1cccc(O)c1)c1ccccc1-c1nc(-c2cccc(Cl)c2)no1
B: Cc1cccc2cc(C(C#N)N3CCNCC3)c(=O)[nH]c12 (stereo unspecified)
Q) Endpoint returns the identifier whose pIC50 is numerically larger, either A or B . Could you answer with the label of the item you picked?
A) B
(B: 5.81, A: 4.57)

A: Cc1sc(NC(=O)CSc2nnc(-c3ccccc3)o2)c(C#N)c1-c1ccc(F)cc1
B: CCc1ccc(NC(=O)CSc2nc(C)cc(=O)[nH]2)cc1
Q) Endpoint returns the identifier whose pIC50 is numerically larger, either A or B . Could you answer with the label of the item you picked?
A) B

* * *

Target: Ubiquitin carboxyl-terminal hydrolase BAP1 (Homo sapiens) (UniProt Q92560)
Assay: BAP1 inhibitor potency with two substrates, dose response, biochemical, Ub-AMC versus Ub-rhodamine substrates (AID 1068)
Conditions: recombinant BAP1, Ub-rhodamine hydrolysis fluorescence
Active and inactive are the calls of the source.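 Rule for the calls: active = IC50 of 15 µM or lower, and residual activity at the IC50 concentration no higher than 60%; inactive = the rest.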
Select the matching outcome among active, inactive

Cc1ccc(-c2c(C)sc(NC(=O)CSc3nnc(-c4ccccc4)o3)c2C#N)cc1C; inactive
Cc1sc(NC(=O)CSc2nnc(-c3ccc(Cl)cc3)o2)c(C#N)c1-c1ccc(F)cc1; active
Cc1sc(NC(=O)CSc2n[nH]c(-c3ccc(O)cc3)n2)c(C#N)c1-c1ccc(F)cc1; active
N#Cc1c(NC(=O)CSc2nnc(-c3ccc(Cl)cc3)o2)sc2c1CCCC2; inactive
COc1ccccc1NC(=O)c1ccccc1-c1nc(-c2ccc(Cl)cc2)no1; inactive

Q) Lab log entry: `O=C(Nc1cccc(O)c1)c1ccccc1-c1nc(-c2cccc(Cl)c2)no1` — outcome as called in the assay?
A) inactive

Q) Please answer likewise for `N#Cc1c(NC(=O)CSc2nnc(-c3ccc(F)cc3)o2)sc2c1CCCC2`
A) inactive

Q) Please answer likewise for `COc1cccc(NC(=O)c2ccccc2-c2nc(-c3ccc(Cl)cc3)no2)c1`
A) inactive

Q) Please answer likewise for `O=C(O)c1ccccc1-c1nc(-c2cccc(Cl)c2)no1`
A) inactive

Q) Please answer likewise for Cc1cccc2cc(C(c3nnnn3C(C)(C)C)N3CCN(C(=O)OC(C)(C)C)CC3)c(=O)[nH]c12 (stereo not given)
A) inactive

Q) Please answer likewise for `O=C(O)c1ccccc1-c1nc(-c2ccc(Cl)cc2)no1`
A) inactive

Q) Please answer likewise for Cc1cccc2cc(C(c3nnnn3C(C)(C)C)N3CCN(C(=O)c4ccco4)CC3)c(=O)[nH]c12 (stereo not given)
A) inactive

Q) Please answer likewise for `Cc1sc(NC(=O)CSc2nnc(-c3ccccc3)o2)c(C#N)c1-c1ccc(F)cc1`
A) active

* * *

Molecular target: Ubiquitin carboxyl-terminal hydrolase BAP1 (Homo sapiens) (UniProt Q92560)
Assay: BAP1 inhibitor potency with two substrates, dose response, biochemical, Ub-AMC versus Ub-rhodamine substrates (AID 1068)
Details: recombinant BAP1, Ub-rhodamine hydrolysis fluorescence; measured here: Ub-AMC substrate assay
readout.kind: IC50 (µM)

Example results:
COc1ccccc1NC(=O)c1ccccc1-c1nc(-c2ccc(Cl)cc2)no1; 40.1
COc1cc(-c2nnc(SCC(=O)Nc3sc(C)c(-c4ccc(F)cc4)c3C#N)o2)cc(OC)c1OC; 39.6

P: N#Cc1c(NC(=O)CSc2nnc(-c3ccc(F)cc3)o2)sc2c1CCCC2
Q: O=C(O)c1ccccc1-c1nc(-c2ccc(Cl)cc2)no1
Q) Kindly identify the item with the lower IC50 figure among these two: P and Q Could you answer with the label of the item you picked?
A) Q

* * *

Molecular target: UniProt Q92560
Test: BAP1 inhibitor potency with two substrates, dose response, biochemical, Ub-AMC versus Ub-rhodamine substrates (AID 1068)
Conditions: recombinant BAP1, Ub-rhodamine hydrolysis fluorescence
Activity calls are given as the source filed them.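 The calls were made as follows: active = IC50 of 15 µM or lower, and residual activity at the IC50 concentration no higher than 60%; inactive = the rest.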
readout.kind: IC50

COc1cccc(NC(=O)c2ccccc2-c2nc(-c3cccc(Cl)c3)no2)c1; inactive
O=C(NCc1cccs1)c1cc2nc(-c3ccc4c(c3)OCO4)cc(C(F)(F)F)n2n1; inactive
Cc1ccc(-c2c(C)sc(NC(=O)CSc3nnc(-c4ccc(F)cc4)o3)c2C#N)cc1C; 10 µM
COc1cc(-c2nnc(SCC(=O)Nc3sc(C)c(-c4ccc(F)cc4)c3C#N)o2)cc(OC)c1OC; inactive

* * *

Biological target: Ubiquitin carboxyl-terminal hydrolase BAP1 (Homo sapiens) (UniProt Q92560)
Assay: BAP1 inhibitor potency with two substrates, dose response, biochemical, Ub-AMC versus Ub-rhodamine substrates (AID 1068)
Details: recombinant BAP1, Ub-rhodamine hydrolysis fluorescence; measured here: Ub-AMC substrate assay
readout.kind: IC50

Example results:
COC(=O)c1ccc(NC(=O)CSc2nc(C)cc(=O)[nH]2)cc1; > 100 µM
Cc1oc(NC(=O)CSc2n[nH]c(-c3ccc(F)cc3)n2)c(C#N)c1C; 46.5 µM
CCCc1cc(=O)[nH]c(SCC(=O)Nc2ccc(C(=O)OC)cc2)n1; > 100 µM

Q) Quick one: IC50 for Cc1cccc2cc(C(C#N)N3CCN(C(=O)OC(C)(C)C)CC3)c(=O)[nH]c12 (centres undefined) ?
A) > 100 µM

* * *

Biological target: Ubiquitin carboxyl-terminal hydrolase BAP1 (Homo sapiens) (UniProt Q92560)
Assay: BAP1 inhibitor potency with two substrates, dose response, biochemical, Ub-AMC versus Ub-rhodamine substrates (AID 1068)
Conditions: recombinant BAP1, Ub-rhodamine hydrolysis fluorescence
Calls of active or inactive are those of the source.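 How the source made its calls: active means IC50 of 15 µM or lower, and residual activity at the IC50 concentration no higher than 60%; inactive means the rest.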
Select the matching outcome among active, inactive

Q) Lab log entry: Cc1cccc2cc(C(c3nn[nH]n3)N3CCN(C(=O)OC(C)(C)C)CC3)c(=O)[nH]c12 (configuration not stated) — outcome as called in the assay?
A) inactive

Q) Please answer likewise for Cc1cccc2cc(C(C#N)N3CCNCC3)c(=O)[nH]c12 (configuration not stated)
A) inactive

Q) Please answer likewise for `O=C(NCc1ccco1)c1cc2nc(-c3ccc4c(c3)OCO4)cc(C(F)(F)F)n2n1`
A) inactive

Q) Please answer likewise for `Cc1ccc(-c2c(C)sc(NC(=O)CSc3nnc(-c4ccc(Cl)cc4)o3)c2C#N)cc1C`
A) active

Q) Please answer likewise for `Cc1sc(NC(=O)CSc2nnc(-c3ccccc3)o2)c(C#N)c1C`
A) inactive

Q) Please answer likewise for Cc1cccc2cc(C(C#N)N3CCN(C(=O)OC(C)(C)C)CC3)c(=O)[nH]c12 (configuration not stated)
A) inactive

Q) Please answer likewise for Cc1cccc2cc(C(c3nnnn3C(C)(C)C)N3CCNCC3)c(=O)[nH]c12 (configuration not stated)
A) inactive
